# Test system: OVCAR-5
# ASSAY PROTOCOL: NCI tumour cell line growth inhibition, 48 h
The source made the active and inactive calls. Rule as the data show it: active = GI50 up to about 1.1 µM and inactive = higher.
OUTCOME MEASURE: GI50

Given the entry COC1(OC)C2C=CC1C([C@](C)(N)CO)C2 (some centres not stated) , report its measured GI50. > 100 µM (inactive)

Given the entry `CCN(CC)c1c(-c2c(N(CC)CC)c(OC(C)=O)c3sccn3c2=O)c(=O)n2ccsc2c1OC(C)=O` , report its measured GI50. > 100 µM (inactive)

Given the entry `O=C1c2ccccc2C(=O)c2nn(N=P(CP(=Nn3nc4c(n3)C(=O)c3ccccc3C4=O)(c3ccccc3)c3ccccc3)(c3ccccc3)c3ccccc3)nc21` , report its measured GI50. > 100 µM (inactive)

Given the entry Cc1cc(O)c2c(c1O)C(=O)C1=C(C2=O)C(=O)C2C(O)C1C1C(O)CC(O)=C3C(=O)c4c(O)cc(C)c(O)c4C(=O)C321 (configuration not stated) , report its measured GI50. 3.62 µM (inactive)

Given the entry `CN(C)/C=N/S(=O)(=O)c1nn2c(C=O)c(-c3cc4ccccc4oc3=O)nc2s1` , report its measured GI50. 14.6 µM (inactive)

Given the entry OC(CN(CCCl)CCCl)C(O)C(O)C(O)CN(CCCl)CCCl (configuration not stated) , report its measured GI50. > 100 µM (inactive)

Given the entry `Cc1ccccc1C(=O)c1ccccc1O` , report its measured GI50. > 100 µM (inactive)

Given the entry `CSc1n[n+]2c(s1)SCCC2` , report its measured GI50. > 100 µM (inactive)
